Ref: PubChem BioAssay (NCI)

Tested on: A498 renal
Test: NCI tumour cell line growth inhibition, 48 h
Field: TGI. Provide a value for each of the compounds that follow.

Ask | Reported TGI, compound Cn1nc(-c2ccccc2)c(N=[N+]=[N-])cc1=O : ____
Reply | > 100 µM

Ask | Reported TGI, compound Nc1nc2cc(CNc3ccc(C(=O)O)cc3)ccc2nc1-c1ccccc1 : ____
Reply | > 100 µM

Ask | Reported TGI, compound N#Cc1ccc(/C=N/NC(=O)CSCC(=O)N/N=C/c2ccc(C#N)cc2)cc1 : ____
Reply | > 100 µM

Ask | Reported TGI, compound COc1ccc2c(c1)C1Oc3ccccc3CC1(O)CO2 (stereo not drawn) : ____
Reply | > 100 µM

Ask | Reported TGI, compound CC(=O)N1CC(C)(C)c2c1cc(C)c(O)c2C : ____
Reply | > 100 µM

Ask | Reported TGI, compound O=c1[nH]nc(-c2ccc([N+](=O)[O-])cc2)n1/N=C/c1ccc([N+](=O)[O-])cc1 : ____
Reply | > 100 µM

Ask | Reported TGI, compound [N-]=[N+]=NC1=NNC2(C(=O)N1)c1ccccc1-c1ccccc12 : ____
Reply | > 100 µM

Ask | Reported TGI, compound CN(C)Cc1cc(C(C)(C)C)cc(CNC2CCCCC2)c1O : ____
Reply | > 100 µM

---

Test system: EKVX NSCLC
Experiment: NCI tumour cell line growth inhibition, 48 h
MEASUREMENT_LABEL: TGI

Ask | Reported TGI, compound Cc1cccc(/C=N/NC(=S)N2CCCCCC2)n1 : ____
Reply | 9.32 µM

Ask | Reported TGI, compound C=C(C)[C@@H]1CC[C@]2(CO)CC[C@]3(C)[C@H](CC[C@@H]4[C@@]5(C)CC[C@H](O)C(C)(C)[C@@H]5CC[C@]43C)[C@@H]12 : ____
Reply | 87.6 µM

Ask | Reported TGI, compound Cc1c(NC(=S)N/N=C\C(=N/NC(=S)Nc2c(C)n(C)n(-c3ccccc3)c2=O)c2ccccc2)c(=O)n(-c2ccccc2)n1C : ____
Reply | > 100 µM

Ask | Reported TGI, compound COC(=O)C1=COC(C)C2C[n+]3ccc4c([nH]c5ccccc54)c3CC12 (stereo unspecified) : ____
Reply | > 100 µM

Ask | Reported TGI, compound O=C(O)c1c2c(c(C(=O)O)c3ccccc13)-c1ccccc1-2 : ____
Reply | > 100 µM

Ask | Reported TGI, compound Nc1ccccc1/C=C\c1ccccc1 : ____
Reply | > 100 µM

Ask | Reported TGI, compound OCc1c2c(cc3c1CC1(C3)Cc3cc4c(c(CO)c3C1)CCC4)CCC2 : ____
Reply | 30.5 µM

Ask | Reported TGI, compound N#Cc1ccccc1NC(=O)/C(=N\NC(=O)c1ccncc1)C(c1cnc2ccc([N+](=O)[O-])cc2n1)[N+](=O)[O-] (stereo unspecified) : ____
Reply | > 100 µM

Ask | Reported TGI, compound COc1ccccc1C1=C2C(=O)N(C)C(c3ccccc3OC)=C2C(=O)N1C : ____
Reply | > 100 µM

Ask | Reported TGI, compound CCCN=C1Nc2ccccc2[C@@H]2N(C)c3ccccc3C(C)C[C@]12C (stereo partly specified) : ____
Reply | > 100 µM

Ask | Reported TGI, compound O=C(Nc1ccccc1)c1cc(S(=O)(=O)Nc2n[nH]c(=O)[nH]2)c(SSc2cc(Cl)c(C(=O)Nc3ccccc3)cc2S(=O)(=O)Nc2n[nH]c(=O)[nH]2)cc1Cl : ____
Reply | > 100 µM

Ask | Reported TGI, compound Cc1ccc(C2(N3CCCC3)OC(C)(C)c3cccc4cccc2c34)cc1 (stereo unspecified) : ____
Reply | 24 µM

Ask | Reported TGI, compound O=C(Nc1ccc(-n2cc(-c3ccncc3)c(-c3ccc(O)c(Cl)c3)n2)cc1)c1cc(Cl)cc(Cl)c1 : ____
Reply | > 32.5 µM

Ask | Reported TGI, compound CC1(C)C2CCC1(C)C(N/C(=C(/C(Cl)=C(Cl)Cl)[N+](=O)[O-])n1nnc3ccccc31)C2 (stereo unspecified) : ____
Reply | > 100 µM

Ask | Reported TGI, compound CC1(C)NCCC[C@]2(C)[C@H]3C=CC4=C5C[C@](C)(CO)CC[C@]5(C)CC[C@@]4(C)[C@]3(C)CC[C@@H]12 : ____
Reply | 8.27 µM

Ask | Reported TGI, compound N#CC1=C(N)NC(=S)NC12Nc1ccccc1O2 (stereo unspecified) : ____
Reply | > 100 µM

Ask | Reported TGI, compound O=C(O)C(F)(F)C(F)(F)C(F)(F)C(F)(F)C(=O)O : ____
Reply | > 100 µM

Ask | Reported TGI, compound FC(F)(F)c1cccc(COCCN2CCN(Cc3cccc(C(F)(F)F)c3)CC2)c1 : ____
Reply | 23.4 µM

Ask | Reported TGI, compound CN(C)Cc1cc(C(C)(C)C)cc(CNC2CCCCC2)c1O : ____
Reply | > 100 µM

Ask | Reported TGI, compound COc1ccc(C[C@H]2NC(=O)/C=C/C[C@@H]([C@H](C)[C@H]3O[C@@H]3c3ccccc3)OC(=O)[C@H](CC(C)C)OC(=O)[C@H](C)CNC2=O)cc1 : ____
Reply | > 9.66e-05 µM

Ask | Reported TGI, compound CC1(C)OC[C@@H]([C@@]2(CO[Si](C)(C)C(C)(C)C)CC=CC(=O)O2)O1 : ____
Reply | 63.3 µM

Ask | Reported TGI, compound COc1ccc(C2=NN(C(=O)COc3ccc(Cl)cc3)C(O)(c3cc(F)c(Cl)cc3Cl)C2)cc1OC (stereo unspecified) : ____
Reply | 22.8 µM

Ask | Reported TGI, compound COC(=O)COc1ccc(/C=C2\N=C(c3ccccc3)N(c3cc(C(F)(F)F)ccc3Cl)C2=O)cc1 : ____
Reply | > 100 µM

Ask | Reported TGI, compound CC(=O)[CH-]C(=O)c1ccccc1.CC(=O)[CH-]C(=O)c1ccccc1.CC(=O)[CH-]C(=O)c1ccccc1.[Tl+3] : ____
Reply | > 100 µM

Ask | Reported TGI, compound Cc1ccc(S(=O)(=O)Nc2nc3ccccc3c(=O)n2C2CCCCC2)cc1 : ____
Reply | > 100 µM

Ask | Reported TGI, compound CC(C)=CC(C)C(C(O)CCC1(c2ccoc2)OCCO1)S(=O)(=O)c1ccccc1 (stereo unspecified) : ____
Reply | > 100 µM

Ask | Reported TGI, compound COc1cc(NC(=O)c2cc(OC)c3ccn(C)c3c2)cc2c1C[C@]1(C)CC[C@@H](O)C(C)(C)[C@H]1O2 : ____
Reply | > 100 µM

Ask | Reported TGI, compound COc1ccc(/C=C\c2cc(OC)c(OC)c(OC)c2)cc1OC(=O)C(N)CCC(=O)O (stereo unspecified) : ____
Reply | > 100 µM

Ask | Reported TGI, compound O=C1OC(C2Cc3ccccc3C2=O)c2ccccc21 (stereo unspecified) : ____
Reply | > 100 µM

Ask | Reported TGI, compound Fc1ccc(C2NC(=S)NC3=C2CCOc2c3ccc3ccccc23)cc1 (stereo unspecified) : ____
Reply | > 100 µM

Ask | Reported TGI, compound CCOC(=O)Cc1csc(/N=C2\NC(=O)/C(=C3\C(=O)N(C)c4ccccc43)S2)n1 : ____
Reply | > 100 µM

---

Field: TGI. Provide a value for each of the compounds that follow.
System: NCI/ADR-RES ovarian
Assay: NCI tumour cell line growth inhibition, 48 h

Ask | Reported TGI, compound CC1(CCc2ccccc2)CC1(Br)Br (stereo not drawn) : ____
Reply | > 100 µM

Ask | Reported TGI, compound N#Cc1ccc(OC(=O)c2ccc(N=C(N)N)cc2)cc1 : ____
Reply | > 100 µM

Ask | Reported TGI, compound NNC(=O)Cc1cccnc1 : ____
Reply | > 100 µM

---

System: A498 renal
Assay: NCI tumour cell line growth inhibition, 48 h; in the data active means GI50 below about 0.43 µM; inactive means the rest
Pick one: 1.0 for active, 0.0 for inactive

Ask | Given COc1cc(NC(=O)c2cc(OC)c3ccn(C)c3c2)cc2c1C[C@]1(C)CC[C@@H](O)C(C)(C)[C@H]1O2 , state the outcome it received in this test.
Reply | 0.0

Ask | Given Nc1ccc(C(=O)c2ccc(N)c(Br)c2)cc1Br , state the outcome it received in this test.
Reply | 1.0

Ask | Given N=C1c2nc3n(c2C(=O)c2nc4n(c21)CCCC4)CCCC3 , state the outcome it received in this test.
Reply | 0.0

---

Field: TGI. Provide a value for each of the compounds that follow.
System: SR leukemia
Assay: NCI tumour cell line growth inhibition, 48 h

Ask | Reported TGI, compound C[C@]12CC[C@H](O)CC1=CC[C@@H]1C2CC[C@]2(C)c3nn(-c4ccc(F)cc4)nc3CC12 (stereo not given in full) : ____
Reply | > 100 µM

Ask | Reported TGI, compound COc1cc(NC(=O)c2cc(OC)c3ccn(C)c3c2)cc2c1C[C@]1(C)CC[C@@H](O)C(C)(C)[C@H]1O2 : ____
Reply | > 100 µM

Ask | Reported TGI, compound O=S(=O)(O)c1ccc2c(N=Nc3ccccc3)c(O)c(S(=O)(=O)O)cc2c1 : ____
Reply | > 100 µM

Ask | Reported TGI, compound O=C1C=C(N2CCCC2)C(=O)c2c(O)ccc(O)c21 : ____
Reply | > 1 µM

Ask | Reported TGI, compound O=C(O)CS(=O)c1ccc2c3c(cccc13)C(=O)c1ccccc1-2 (stereo not given) : ____
Reply | > 100 µM

Ask | Reported TGI, compound COC1/C=C\C=C(/C)C(=O)Nc2cc3nc4ccc(Br)cc4oc-3c(c2=O)CC(C)CC(OC)C(O)C(C)/C=C(\C)C1OC(N)=O (stereo not given) : ____
Reply | 0.634 µM

Ask | Reported TGI, compound C=CC[C@H]1C[C@@]2(C)OC[C@H](C(C)C)N2C1=O : ____
Reply | > 100 µM

Ask | Reported TGI, compound CC(=O)Nc1nc(SCc2ccccc2)c2ncn(C(C)=O)c2n1 : ____
Reply | > 100 µM

Ask | Reported TGI, compound O=C(CCCC1Cc2ccccc2C1=O)c1ccccc1 (stereo not given) : ____
Reply | > 100 µM

Ask | Reported TGI, compound COc1ccc(C(=O)C(c2ccc(OC)cc2)C2(O)C(=O)Nc3c(C)cc(Cl)cc32)cc1 (stereo not given) : ____
Reply | 48.2 µM
